test: Ratio of brain AUC to plasma AUC in FVB mouse; assay type: ADME, cell-free; conditions: brain and plasma
READOUT: Kp

• C[C@H]1CN(C(=O)c2ccc(-c3ccncc3)c(F)c2)CCN1C(=O)c1ccc2cc[nH]c2c1 = 0.16

# input for lookup
Supply reported Kp belonging to this molecule: C[C@H]1CN(C(=O)c2ccc(-c3ccccc3F)cc2)CCN1C(=O)c1ccc2cc[nH]c2c1 0.26

====

target: Growth hormone secretagogue receptor type 1 (Rattus norvegicus); experiment: Inhibition of rat GHSR expressed in CHOK1 cells assessed as inhibition of ghrelin-induced intracellular calcium flux by aequorin flash luminescence assay; type: functional, cell-based; details: CHO-K1
READOUT: IC50

* C[C@H]1CN(C(=O)c2ccc(-c3ccncc3F)c(F)c2)CCN1C(=O)c1ccc2cc[nH]c2c1 | 0.045 µM
* C[C@H]1CN(C(=O)c2ccc(-c3ccncc3F)cc2)CCN1C(=O)c1ccc2cc[nH]c2c1 | 0.049 µM

# input for lookup
Supply reported IC50 belonging to this compound: C[C@H]1CN(C(=O)c2ccc(-c3ccncc3)c(F)c2)CCN1C(=O)c1ccc2cc[nH]c2c1 0.0103 µM

====

test: Mean residence time in rat at 2 mg/kg, iv; assay type: ADME, organism-based; set-up: dose 2 mg/kg, route intravenous; settings: in vivo
READOUT: MRT (h)
Numbers only, in h.

Supply reported MRT belonging to this compound: C[C@H]1CN(C(=O)c2ccc(-c3ccccc3F)cc2)CCN1C(=O)c1ccc2cc[nH]c2c1 1.9

====

Record: Ki reported on Sodium-dependent noradrenaline transporter (Homo sapiens, UniProt P23975).
Sequence (P23975 whole entry): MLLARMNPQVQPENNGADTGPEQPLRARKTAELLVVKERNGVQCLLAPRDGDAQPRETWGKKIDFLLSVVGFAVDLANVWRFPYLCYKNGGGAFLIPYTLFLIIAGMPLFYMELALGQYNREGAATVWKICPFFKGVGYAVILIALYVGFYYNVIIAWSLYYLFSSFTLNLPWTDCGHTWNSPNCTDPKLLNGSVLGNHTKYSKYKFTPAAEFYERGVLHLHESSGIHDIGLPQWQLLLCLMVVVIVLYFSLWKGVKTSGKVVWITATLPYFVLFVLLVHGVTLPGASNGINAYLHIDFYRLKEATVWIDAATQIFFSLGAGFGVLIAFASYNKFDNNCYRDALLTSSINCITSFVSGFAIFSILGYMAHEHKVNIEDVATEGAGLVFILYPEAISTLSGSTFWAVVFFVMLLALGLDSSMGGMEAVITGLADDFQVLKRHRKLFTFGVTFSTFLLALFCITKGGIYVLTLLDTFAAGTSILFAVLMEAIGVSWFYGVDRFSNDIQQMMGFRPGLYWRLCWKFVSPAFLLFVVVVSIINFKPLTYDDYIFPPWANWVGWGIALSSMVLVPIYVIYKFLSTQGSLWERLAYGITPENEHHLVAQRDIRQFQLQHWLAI

Past entries and their recorded results:
* COc1cccc(-c2ccc(C(=O)N3CCN(C(=O)c4ccc5cc[nH]c5c4)[C@@H](C)C3)cc2)c1 | > 10 µM
* Cc1ccccc1-c1ccc(C(=O)N2CCN(C(=O)c3ccc4cc[nH]c4c3)[C@@H](C)C2)cc1 | > 10 µM
* C[C@H]1CN(C(=O)c2ccc(-c3cccc(OC(F)(F)F)c3)cc2)CCN1C(=O)c1ccc2cc[nH]c2c1 | > 10 µM
* O=C(c1ccc(-c2ccccc2)cc1)N1CCN(C(=O)c2ccc3cc[nH]c3c2)CC1 | > 10 µM
* C[C@H]1CN(C(=O)c2ccc(-c3ccc(F)cc3)cc2)CCN1C(=O)c1ccc2cc[nH]c2c1 | > 10 µM
* C[C@H]1CN(C(=O)c2ccc(-c3cccc(C(F)(F)F)c3)cc2)CCN1C(=O)c1ccc2cc[nH]c2c1 | > 10 µM

Look at each compound and report its Ki.
1. COc1cccc(-c2ccc(C(=O)N3CCN(C(=O)c4ccc5cc[nH]c5c4)[C@H](C)C3)cc2)c1
2. C[C@H]1CN(C(=O)c2ccc(-c3ccccc3F)cc2)CCN1C(=O)c1ccc2cc[nH]c2c1
3. C[C@H]1CN(C(=O)c2ccc(-c3cccc(F)c3)cc2)CCN1C(=O)c1ccc2cc[nH]c2c1

> 10 µM
> 10 µM
> 10 µM

====

experiment: Mean residence time in mouse at 0.5 mg/kg, iv; type: ADME, organism-based; parameters: dose 0.5 mg/kg, route intravenous; conditions: in vivo
READOUT: MRT (min)
One number for each entry, in min.

Supply reported MRT belonging to this molecule: C[C@H]1CN(C(=O)c2ccc(-c3ccncc3)c(F)c2)CCN1C(=O)c1ccc2cc[nH]c2c1 42
